Data provenance is PubChem BioAssay (NCATS).

Tested on: OV90
Test: Primary qHTS to identify gynecologic anti-cancer compounds using libraries of approved drugs and bioactive compounds (AID 1345084); also: nearly all actives have a fitted effect of over 55% in size; also: potency is read from the fitted curve at half-maximal effect
Conditions: Gynecologic cancer cell panel viability, ATPlite luminescence, 48 h; series mostly up to 57.5 µM
Results filed as inconclusive are left out. Activity calls are given as the source filed them. Calls follow the shape of the dose curve; as a rule, active = well fitted cell-killing curve with a large enough effect; inconclusive = small, poorly fitted or top-dose-only effect, or effect the other way; inactive = flat fitted curve, though single readings scatter.
observed.property: Potency

[
  {
    "molecule.smiles": "COc1cc(O)c(C(=O)CCc2ccc(O)cc2)c(O[C@@H]2O[C@H](CO)[C@@H](O)[C@H](O)[C@H]2O)c1",
    "measured.on": "OV90",
    "Potency": "inactive"
  },
  {
    "molecule.smiles": "COc1cc2nc(N3CCN(C)CC3)nc(NC3CCN(Cc4ccccc4)CC3)c2cc1OC",
    "measured.on": "OV90",
    "Potency": "22.4 µM (active)"
  },
  {
    "molecule.smiles": "COc1ccc(NS(=O)(=O)c2sc3ccc(Cl)cc3c2C)cc1N1CCNCC1",
    "measured.on": "OV90",
    "Potency": "inactive"
  },
  {
    "molecule.smiles": "C=C1C(=O)O[C@@H]2CC(C)=C([C@@H](C)CCCO)[C@@H](OC(=O)C(C)C)[C@H]12",
    "measured.on": "OV90",
    "Potency": "inactive"
  },
  {
    "molecule.smiles": "CC1(C)CC23[C@@H]4CC(=O)[C@@H]2COC(=O)[C@@H]3CC[C@H]41",
    "measured.on": "OV90",
    "Potency": "inactive"
  }
]

Lookup result for "COc1cc(-c2cc(-c3cccc(O)c3)cnc2N)cc(OC)c1OC" ; measured Potency: inactive

----------
Target: Catechol O-methyltransferase (Homo sapiens) (UniProt P21964)
Sequence (P21964 whole entry, looked up): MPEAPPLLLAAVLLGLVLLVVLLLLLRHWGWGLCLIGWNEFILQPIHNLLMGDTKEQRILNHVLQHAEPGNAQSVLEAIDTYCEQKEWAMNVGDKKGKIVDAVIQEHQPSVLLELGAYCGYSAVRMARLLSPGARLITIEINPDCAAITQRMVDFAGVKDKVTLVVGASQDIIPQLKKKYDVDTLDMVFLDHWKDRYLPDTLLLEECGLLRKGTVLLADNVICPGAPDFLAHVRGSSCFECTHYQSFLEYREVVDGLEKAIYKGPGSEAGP
Experiment: Confirmatory Screen for Target Class Profiling of Small Molecule Inhibitors of Methyltransferases (AID 1745852)
Conditions: MTase-Glo luminescence, SAH detection, recombinant enzyme; measured here: COMT max response; stronger effect = lower value
observed.property: activity (%)
One number for each entry, in %.

As a guide, the following entries are already answered.
[
  {
    "molecule.smiles": "Cn1cc(-c2cnc3ccc4ccc(CS(=O)(=O)NCc5ccccn5)cc4c(=O)c3c2)cn1",
    "activity (%)": -3.92
  },
  {
    "molecule.smiles": "CC(C)n1nc(-c2ccc(NC(=O)Nc3cccc(C(F)(F)F)c3)cc2)c2c(N)ncnc21",
    "activity (%)": -1.63
  },
  {
    "molecule.smiles": "CC(C)n1nc(Cc2cccc3ccccc23)c2c(N)ncnc21",
    "activity (%)": -11.5
  },
  {
    "molecule.smiles": "COc1ccc(C(=O)N(CCC(C)C)Cc2nc(C)c(C)n2Cc2ccccc2C)c(OC)c1",
    "activity (%)": -8.43
  }
]

Next, consider the following compound.
Lookup result for "O=C1NC(=O)/C(=C\c2ccc3c(c2)OC(F)(F)O3)S1" ; measured activity: -3.87

----------
Test: Primary qHTS for inhibitors of nuclear receptor binding SET domain protein 2 (NSD2) in an RCH-ACV wild type WT cells (2C) (AID 1645877); also: nearly all actives have a fitted effect of over 70% in size
Conditions: RCH-ACV (leukaemia line) NSD2 WT (2C) viability, CellTiter-Glo, 72 h; series mostly up to 44.9 µM
Records with an inconclusive call do not appear. Active and inactive are the calls of the source. The call rests on the fitted dose curve; in most records, active means well fitted inhibition curve with a large enough effect; inconclusive means small, poorly fitted or top-dose-only effect; inactive means no such curve, though single readings can be large or run the other way.
Choose the fitting class; nothing outside active, inactive is accepted.

[
  {
    "molecule": "CCCC(NC(=O)/C(C#N)=C/c1cccc(Br)n1)c1ccccc1 (centres undefined)",
    "group.label": "active"
  },
  {
    "molecule": "CN(C)CCOc1ccc(-c2nc(-c3ccc4c(c3)CC/C4=N/O)c(-c3ccncc3)[nH]2)cc1",
    "group.label": "active"
  },
  {
    "molecule": "O=c1cc(-c2ccc(O)cc2)oc2cc(OC3OC(CO)C(O)C(O)C3O)c(C3OC(CO)C(O)C(O)C3O)c(O)c12 (centres undefined)",
    "group.label": "inactive"
  },
  {
    "molecule": "Nc1ncnc(Nc2ccc(OCc3ccccc3)c(Cl)c2)c1/C=N/OCCN1CCOCC1",
    "group.label": "active"
  },
  {
    "molecule": "CCCCn1ccc(N2CCC(c3ccccc3)CC2)c(Cl)c1=O",
    "group.label": "active"
  }
]

Please share the test call associated with "COc1cc(-c2cc(-c3cccc(O)c3)cnc2N)cc(OC)c1OC" .
active
